# studySystem: huCD28 (human, UniProt P10747 19-152, limits assumed)
# assayNotes: SPR, OAA format

binder: v37841 (antibody, V domains shown, OAA format as v34891; also called huTN228 S1029A (VH) OAA) VH: QVQLQESGPGLVKPSETLSLTCAVSGFALTSYGVHWIRQPPGKGLEWLGVIWPGGGTNFNSALMSRLTISEDTSKNQVSLKLSSVTAADTAVYYCARDRAYGNYLYAMDYWGQGTLVTVSS VL: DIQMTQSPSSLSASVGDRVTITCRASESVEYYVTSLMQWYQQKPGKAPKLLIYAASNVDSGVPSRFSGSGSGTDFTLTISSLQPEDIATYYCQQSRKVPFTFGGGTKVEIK
Kd [nM]: 63.4

binder: v37844 (antibody, V domains shown, OAA format as v34891; also called huTN228 S1036A (VH) OAA) VH: QVQLQESGPGLVKPSETLSLTCAVSGFSLTAYGVHWIRQPPGKGLEWLGVIWPGGGTNFNSALMSRLTISEDTSKNQVSLKLSSVTAADTAVYYCARDRAYGNYLYAMDYWGQGTLVTVSS VL: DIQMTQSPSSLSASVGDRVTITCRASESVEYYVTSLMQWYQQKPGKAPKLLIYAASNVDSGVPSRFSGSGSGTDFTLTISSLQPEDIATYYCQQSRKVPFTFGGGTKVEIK
Kd [nM]: 61.6

binder: v37845 (antibody, V domains shown, OAA format; also called huTN228 Y1037A (VH) OAA) VH: QVQLQESGPGLVKPSETLSLTCAVSGFSLTSAGVHWIRQPPGKGLEWLGVIWPGGGTNFNSALMSRLTISEDTSKNQVSLKLSSVTAADTAVYYCARDRAYGNYLYAMDYWGQGTLVTVSS VL: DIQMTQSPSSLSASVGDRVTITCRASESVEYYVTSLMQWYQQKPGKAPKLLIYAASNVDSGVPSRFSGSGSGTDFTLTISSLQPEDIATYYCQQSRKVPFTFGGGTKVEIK
Kd [nM]: 247

binder: v37898 (antibody, V domains shown, OAA format as v34891) VH: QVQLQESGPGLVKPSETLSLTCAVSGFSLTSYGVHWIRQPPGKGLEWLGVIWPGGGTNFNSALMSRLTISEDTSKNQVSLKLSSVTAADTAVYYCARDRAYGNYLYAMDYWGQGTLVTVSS VL: DIQMTQSPSSLSASVGDRVTITCRASESVEYYVTSLLNWYQQKPGKAPKLLIYAASNVDSGVPSRFSGSGSGTDFTLTISSLQPEDIATYYCQQSRKVPFTFGGGTKVEIK
Kd [nM]: 73.7

binder: v37879 (antibody, V domains shown, OAA format as v34891; also called huTN228 V1114A (VL) OAA) VH: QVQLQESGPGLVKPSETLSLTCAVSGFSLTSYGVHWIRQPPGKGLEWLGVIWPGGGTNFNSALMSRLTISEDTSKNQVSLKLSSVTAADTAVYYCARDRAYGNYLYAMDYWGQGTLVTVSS VL: DIQMTQSPSSLSASVGDRVTITCRASESVEYYVTSLMQWYQQKPGKAPKLLIYAASNVDSGVPSRFSGSGSGTDFTLTISSLQPEDIATYYCQQSRKAPFTFGGGTKVEIK
Kd [nM]: 34.7

The origin of these recorded values is patent US20260028403A1.
